Just for reference, patent US9676760B2 is where these values come from.

# inhibition at 1 µM annotations
Biological target: wild-type human cardiac sodium channel, hNav1.5 (Homo sapiens, UniProt Q14524)
Sequence (Q14524 whole entry): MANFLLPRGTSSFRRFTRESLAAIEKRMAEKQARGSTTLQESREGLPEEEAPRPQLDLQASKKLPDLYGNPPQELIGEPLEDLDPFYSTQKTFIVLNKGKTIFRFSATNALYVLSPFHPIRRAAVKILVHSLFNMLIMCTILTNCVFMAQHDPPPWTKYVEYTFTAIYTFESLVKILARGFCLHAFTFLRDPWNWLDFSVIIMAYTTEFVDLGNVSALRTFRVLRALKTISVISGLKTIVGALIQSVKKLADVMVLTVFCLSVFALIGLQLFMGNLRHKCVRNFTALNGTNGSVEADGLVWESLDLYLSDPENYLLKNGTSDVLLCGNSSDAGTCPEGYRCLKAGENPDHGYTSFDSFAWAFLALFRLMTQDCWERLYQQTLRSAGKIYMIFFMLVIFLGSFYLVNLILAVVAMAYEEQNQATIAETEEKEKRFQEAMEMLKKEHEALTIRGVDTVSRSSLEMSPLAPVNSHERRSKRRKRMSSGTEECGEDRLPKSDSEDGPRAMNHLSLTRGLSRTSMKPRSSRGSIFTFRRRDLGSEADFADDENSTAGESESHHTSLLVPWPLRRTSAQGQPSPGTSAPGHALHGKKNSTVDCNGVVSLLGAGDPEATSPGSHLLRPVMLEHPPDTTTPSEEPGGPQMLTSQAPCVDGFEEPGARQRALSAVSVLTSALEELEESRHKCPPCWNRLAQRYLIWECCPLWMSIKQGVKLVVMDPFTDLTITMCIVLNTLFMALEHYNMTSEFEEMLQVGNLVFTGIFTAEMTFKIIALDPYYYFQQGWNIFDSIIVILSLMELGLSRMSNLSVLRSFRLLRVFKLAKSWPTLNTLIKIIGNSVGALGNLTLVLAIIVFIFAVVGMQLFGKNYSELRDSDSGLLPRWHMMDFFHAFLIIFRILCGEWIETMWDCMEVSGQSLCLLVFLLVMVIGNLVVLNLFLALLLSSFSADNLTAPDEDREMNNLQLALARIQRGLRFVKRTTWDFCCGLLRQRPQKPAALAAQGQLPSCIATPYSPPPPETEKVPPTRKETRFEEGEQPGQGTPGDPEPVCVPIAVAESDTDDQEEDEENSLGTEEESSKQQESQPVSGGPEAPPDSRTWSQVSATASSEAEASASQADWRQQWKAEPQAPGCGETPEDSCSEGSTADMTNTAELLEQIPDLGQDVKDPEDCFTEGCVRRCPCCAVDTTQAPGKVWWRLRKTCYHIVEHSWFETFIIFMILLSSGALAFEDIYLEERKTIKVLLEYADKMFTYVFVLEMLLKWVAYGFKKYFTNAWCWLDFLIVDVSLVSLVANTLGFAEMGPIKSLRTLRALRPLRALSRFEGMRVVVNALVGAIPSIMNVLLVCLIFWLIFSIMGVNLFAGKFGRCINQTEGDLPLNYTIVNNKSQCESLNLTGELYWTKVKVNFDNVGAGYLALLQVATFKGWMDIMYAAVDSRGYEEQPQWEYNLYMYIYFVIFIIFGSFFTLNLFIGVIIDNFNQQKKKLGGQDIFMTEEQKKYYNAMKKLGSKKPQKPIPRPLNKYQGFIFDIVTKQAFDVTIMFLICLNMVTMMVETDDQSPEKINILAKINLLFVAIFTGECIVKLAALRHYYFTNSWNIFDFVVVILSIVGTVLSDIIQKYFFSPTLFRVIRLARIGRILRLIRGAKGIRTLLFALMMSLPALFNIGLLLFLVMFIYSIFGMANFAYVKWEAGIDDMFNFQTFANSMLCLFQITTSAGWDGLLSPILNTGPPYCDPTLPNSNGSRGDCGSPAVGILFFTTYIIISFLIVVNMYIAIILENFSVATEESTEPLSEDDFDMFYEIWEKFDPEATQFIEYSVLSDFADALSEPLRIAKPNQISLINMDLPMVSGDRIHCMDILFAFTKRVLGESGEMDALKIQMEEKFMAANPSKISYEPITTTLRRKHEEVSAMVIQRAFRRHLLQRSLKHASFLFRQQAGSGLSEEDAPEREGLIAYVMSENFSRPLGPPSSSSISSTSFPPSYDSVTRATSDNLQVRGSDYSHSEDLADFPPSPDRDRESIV
Experiment: Late INa screening assay (QPatch whole cell patch clamp, HEK293)
Assay type: cell-based
Details: HEK293, percent block of late INa; compound at 1 μM; 10 μM Tefluthrin; read-out: Late INa 1 μM
value.kind: inhibition at 1 µM (%)

1) O=C1c2cc(-c3ccc(C(F)(F)F)cc3)ccc2OC[C@@H]2CN(CC(F)F)CCN12 | 23
2) O=C1c2cc(-c3ccc(Oc4ccc(F)cc4)cc3)ccc2OCCN1Cc1ncccn1 | 70
3) CCN1CCN2C(=O)c3cc(-c4ccc(C(F)(F)F)cc4)ccc3OC[C@H]2C1 | 25
4) O=C1c2cc(-c3ccc(OC(F)(F)F)cc3)ccc2OCCN1CCCS(=O)(=O)NC1CC1 | 18
5) Cn1cc(CN2CCOc3ccc(-c4ccc(OC(F)(F)F)cc4)cc3C2=O)cn1 | 48
6) CC(C)(C)Oc1cc(-c2ccc3c(c2)C(=O)N(Cc2ccccn2)CCO3)ccn1 | 36
7) O=C1c2cc(Nc3ccc(OC(F)(F)F)cc3)ccc2OCCN1Cc1ccccn1 | 51
8) O=C1c2cc(-c3ccc(OC(F)(F)F)cc3)ncc2OCCN1Cc1ccccc1 | 53
9) O=C1c2cc(-c3ccc(OC(F)(F)F)cc3)ccc2OCCN1Cc1ncccn1 | 42

---

Target: wild-type human cardiac sodium channel, hNav1.5 (Homo sapiens, UniProt Q14524)
Experiment: Late INa screening assay (QPatch whole cell patch clamp, HEK293)
Type: cell-based
Settings: HEK293, percent block of late INa; compound at 1 μM; 10 μM Tefluthrin; read-out: Late INa 1 μM
# inhibition at 1 µM annotations
value.kind: inhibition at 1 µM (%)

1) O=S1(=O)c2cc(-c3ccc(C(F)(F)F)cc3)ccc2OCCN1Cc1ncccn1 | 22
2) Cc1cccc(CN2CCOc3ccc(-c4ccc(OC(F)(F)F)cc4)cc3C2=O)n1 | 59
3) O=C1c2cc(-c3ccc(Cl)c(F)c3)ccc2OCCN1Cc1ccccn1 | 58
4) O=C1c2cc(-c3ccc(OC(F)(F)F)cc3)ccc2OCCN1Cc1ccccc1 | 69
5) O=C1c2cc(-c3ccc(CC(F)(F)F)cc3)ccc2OCCN1Cc1ncccn1 | 27
6) O=C1c2cc(-c3ccc(OC(F)(F)F)cc3)ccc2OCCN1Cc1ccccc1F | 55
7) CC(C)(C)c1ccc(-c2ccc3c(c2)C(=O)N(Cc2ncccn2)CCO3)cc1 | 39
8) CC(C)COc1ccc(-c2ccc3c(c2)C(=O)N(Cc2ncccn2)CCO3)cc1 | 36
9) O=C1c2cc(-c3ccc(OS(=O)(=O)C(F)(F)F)cc3)ccc2OCCN1Cc1ncccn1 | 24

---

# inhibition at 1 µM annotations
Target: wild-type human cardiac sodium channel, hNav1.5 (Homo sapiens)
Experiment: Late INa screening assay (QPatch whole cell patch clamp, HEK293)
Type: cell-based
Conditions: HEK293, percent block of late INa; compound at 1 μM; 10 μM Tefluthrin; read-out: Late INa 1 μM
value.kind: inhibition at 1 µM (%)

1) [2H]C1([2H])Oc2ccc(-c3ccc(OC(F)(F)F)cc3)cc2C(=O)N(Cc2ncccn2)C1([2H])[2H] [II-174] | 48
2) Cc1cccnc1CN1CCOc2ccc(-c3ccc(OC(F)(F)F)cc3)cc2C1=O [II-75] | 68
3) CN(C)c1ccnc(CN2CCOc3ccc(-c4ccc(OC(F)(F)F)cc4)cc3C2=O)n1 [II-140] | 32
4) O=C1c2cc(-c3ccc(OC(F)(F)F)cc3)ccc2OCCN1Cc1nccc(N2CCOCC2)n1 [II-133] | 23
5) O=C1c2cc(-c3ccc(C(F)(F)F)cc3)cc(F)c2OCCN1Cc1ccccc1 [II-166] | 53
6) O=C1c2cc(-c3ccc(C4CC4)cc3)ccc2OCCN1Cc1ncccn1 [II-92] | 34
7) O=C1c2cc(-c3ccc(OC(F)(F)F)cc3)ccc2OCCN1Cc1nnc(C2CC2)o1 [II-68] | 17
8) O=C1c2cc(C#Cc3ccc(C(F)(F)F)cc3)ccc2OCCN1Cc1ncccn1 [VIII-6] | 38
9) O=C1c2cc(-c3ccc(OC(F)(F)F)cc3)ccc2OCCN1CC1CC1 [II-10] | 43
10) Cc1ccnc(CN2CCOc3ccc(-c4ccc(OC(F)(F)F)cc4)cc3C2=O)n1 [II-138] | 47
11) O=C1c2cc(-c3ccc(OC(F)(F)F)cc3)ccc2OCCN1CCOc1ncccn1 [II-69] | 33
12) O=C1c2cc(-c3ccc(OC(F)(F)F)cc3)ccc2OCCN1Cc1ccn(C(F)F)n1 [II-147] | 54
13) O=C1c2cc(-c3ccc(C4CC4)s3)ccc2OCCN1Cc1ccccn1 [VI-32] | 66
14) O=C1c2nc(-c3ccc(C(F)(F)F)cc3)ccc2OCCN1Cc1ccccc1 [XII-3] | 44
15) O=C1c2cc(-c3ccc(F)cc3)ccc2OCCN1Cc1ncccn1 [II-104] | 21
16) O=C1c2cc(CCc3ccc(C(F)(F)F)cc3)ccc2OCCN1Cc1ncccn1 [VIII-8] | 47
17) O=C1c2cc(-c3ccc(OC(F)(F)F)cc3)ccc2OCCN1CCn1cccn1 [II-50] | 48
18) O=C1c2cc(-c3ccc(OC(F)(F)F)cc3)ccc2OCCN1Cn1cc(Cl)cn1 [II-156] | 48

---

Target: wild-type human cardiac sodium channel, hNav1.5 (Homo sapiens, UniProt Q14524)
Assay: Late INa screening assay (QPatch whole cell patch clamp, HEK293)
Type: cell-based
Details: HEK293, % Inhibition at 1 uM; read-out: Late INa*
value.kind: inhibition at 1 µM (%)

1) Cc1ccnc(CN2CCOc3ccc(-c4ccc(OC(F)(F)F)cc4)cc3C2=O)n1 | 47
2) O=C1c2cc(-c3ccc(Cl)cc3F)ccc2OCCN1Cc1ncccn1 | 37
3) O=C1c2cc(-c3ccc(OC(F)(F)F)cc3)ccc2OCCN1CC1CC1 | 43
4) O=C1CN(Cc2ccccc2)C(=O)c2cc(-c3ccc(C(F)(F)F)cc3)ccc2N1 | 50
5) Cc1cccnc1CN1CCOc2ccc(-c3ccc(OC(F)(F)F)cc3)cc2C1=O | 68
6) CC(C)(C)c1ccc(-c2ccc3c(c2)C(=O)N(Cc2ncccn2)CCO3)cc1 | 39
7) Cc1cccc(CN2CCOc3ccc(-c4ccc(OC(F)(F)F)cc4)cc3C2=O)n1 | 59
8) O=C(c1ncccn1)N1CCOc2ccc(-c3ccc(OC(F)(F)F)cc3)cc2C1 | 33
9) O=C1c2cc(-c3ccc(C(F)(F)F)cc3F)ccc2OCCN1Cc1ncccn1 | 45

---

# inhibition at 1 µM annotations
Biological target: wild-type human cardiac sodium channel, hNav1.5 (Homo sapiens, UniProt Q14524)
Assay: Peak INa screening assay (tonic and use-dependent block)
Type: cell-based
Details: tonic block of peak INa, 0.1 Hz; compound at 1 μM; read-out: Peak TB 1 μM
value.kind: inhibition at 1 µM (%)

1. O=C1c2cc(-c3ccc(OC(F)(F)F)cc3)ccc2OCCN1Cc1ccccc1 | 38
2. O=C1c2cc(-c3ccc(C(F)(F)F)s3)ccc2OCCN1Cc1ccccn1 | 50
3. O=C1c2cc(-c3ccc(Cl)c(F)c3)ccc2OCCN1Cc1ncccc1F | 23
4. O=C1c2cc(-c3ccc(C(F)(F)F)cc3F)ccc2OCCN1Cc1ncccc1F | 36
5. O=C1c2cc(-c3ccc(OC(F)(F)F)cc3)ccc2OCCN1Cc1ccn(C(F)F)n1 | 13
6. O=C1c2cc(-c3ccc(C(F)(F)F)cc3)ccc2OCCN1Cc1ncccc1F | 45
7. Cn1ccnc1CN1CCOc2ccc(-c3ccc(OC(F)(F)F)cc3)cc2C1=O | 20
8. N#Cc1cccc(CN2CCOc3ccc(-c4ccc(OC(F)(F)F)cc4)cc3C2=O)n1 | 7
9. O=C1c2cc(-c3ccc(OC(F)(F)F)cc3)ccc2OCCN1Cn1cc(Cl)cn1 | 23

---

# inhibition at 1 µM annotations
Target: wild-type human cardiac sodium channel, hNav1.5 (Homo sapiens, UniProt Q14524)
Assay: Peak INa screening assay (tonic and use-dependent block)
Assay type: cell-based
Settings: use-dependent block of peak INa, 3 Hz; compound at 1 μM; read-out: Peak UDB 1 μM
value.kind: inhibition at 1 µM (%)

1) O=C1c2cc(-c3ccc(OC(F)(F)F)cc3)ncc2OCCN1Cc1ncccc1F | 24
2) O=C1c2cc(-c3ccc(OC(F)(F)F)cc3)cc(F)c2OCCN1Cc1ccccc1 | 30
3) COc1ccnc(CN2CCOc3ccc(-c4ccc(OC(F)(F)F)cc4)cc3C2=O)n1 | 26
4) O=C(c1cc[nH]n1)N1CCOc2ccc(-c3ccc(OC(F)(F)F)cc3)cc2C1 | 18
5) O=C1c2nc(-c3ccc(OC(F)(F)F)cc3)ccc2OCCN1Cc1ccccc1 | 64
6) O=C1c2nc(-c3ccc(C(F)(F)F)cc3)ccc2OCCN1Cc1ccccc1 | 79
7) O=C1c2cc(-c3ccc(OC(F)(F)F)cc3)ccc2OCCN1Cc1ccccc1F | 41
8) O=C1c2cc(C#Cc3ccc(OC(F)(F)F)cc3)ccc2OCCN1Cc1ncccn1 | 19
9) O=C1CN(Cc2ccccc2)C(=O)c2cc(-c3ccc(C(F)(F)F)cc3)ccc2N1 | 10
10) O=C1c2cc(-c3ccc(OC(F)(F)F)cc3)ccc2OCCN1Cc1ccccn1 | 34
11) O=C1c2cc(-c3ccc(C(F)(F)F)cc3)ccc2OCCN1Cc1ccccc1 | 40
12) Cc1cnn(CN2CCOc3ccc(-c4ccc(OC(F)(F)F)cc4)cc3C2=O)c1 | 11
13) N#Cc1cccc(CN2CCOc3ccc(-c4ccc(OC(F)(F)F)cc4)cc3C2=O)n1 | 6
14) CN1C(=O)CN(Cc2ccccc2)C(=O)c2cc(-c3ccc(C(F)(F)F)cc3)ccc21 | 20
15) O=C1c2cc(-c3ccc(OC(F)(F)F)cc3)ccc2OCCN1Cc1cn2ccccc2n1 | 28
16) O=C1c2cc(-c3ccc(Cl)c(F)c3)ccc2OCCN1Cc1ccccn1 | 26
17) O=C(Cc1ccccn1)N1CCOc2ccc(-c3ccc(C(F)(F)F)cc3)cc2C1 | 14
18) COc1cccnc1CN1CCOc2cnc(-c3ccc(OC(F)(F)F)cc3)cc2C1=O | 20
19) O=C1c2cc(-c3ccc(OC(F)(F)F)cc3)ccc2OCCN1Cc1ccn(C(F)F)n1 | 6
20) O=C1c2cc(-c3ccc(C(F)(F)F)cc3)c(F)cc2OCCN1Cc1ccccc1 | 47
